target: p110δ/p85α (Homo sapiens, UniProt O00329); test: Transcreener KINASE Assay, kinase inhibition of p110δ/p85α; type: biochemical; settings: 1 uM test compound
Sequence (O00329 whole entry): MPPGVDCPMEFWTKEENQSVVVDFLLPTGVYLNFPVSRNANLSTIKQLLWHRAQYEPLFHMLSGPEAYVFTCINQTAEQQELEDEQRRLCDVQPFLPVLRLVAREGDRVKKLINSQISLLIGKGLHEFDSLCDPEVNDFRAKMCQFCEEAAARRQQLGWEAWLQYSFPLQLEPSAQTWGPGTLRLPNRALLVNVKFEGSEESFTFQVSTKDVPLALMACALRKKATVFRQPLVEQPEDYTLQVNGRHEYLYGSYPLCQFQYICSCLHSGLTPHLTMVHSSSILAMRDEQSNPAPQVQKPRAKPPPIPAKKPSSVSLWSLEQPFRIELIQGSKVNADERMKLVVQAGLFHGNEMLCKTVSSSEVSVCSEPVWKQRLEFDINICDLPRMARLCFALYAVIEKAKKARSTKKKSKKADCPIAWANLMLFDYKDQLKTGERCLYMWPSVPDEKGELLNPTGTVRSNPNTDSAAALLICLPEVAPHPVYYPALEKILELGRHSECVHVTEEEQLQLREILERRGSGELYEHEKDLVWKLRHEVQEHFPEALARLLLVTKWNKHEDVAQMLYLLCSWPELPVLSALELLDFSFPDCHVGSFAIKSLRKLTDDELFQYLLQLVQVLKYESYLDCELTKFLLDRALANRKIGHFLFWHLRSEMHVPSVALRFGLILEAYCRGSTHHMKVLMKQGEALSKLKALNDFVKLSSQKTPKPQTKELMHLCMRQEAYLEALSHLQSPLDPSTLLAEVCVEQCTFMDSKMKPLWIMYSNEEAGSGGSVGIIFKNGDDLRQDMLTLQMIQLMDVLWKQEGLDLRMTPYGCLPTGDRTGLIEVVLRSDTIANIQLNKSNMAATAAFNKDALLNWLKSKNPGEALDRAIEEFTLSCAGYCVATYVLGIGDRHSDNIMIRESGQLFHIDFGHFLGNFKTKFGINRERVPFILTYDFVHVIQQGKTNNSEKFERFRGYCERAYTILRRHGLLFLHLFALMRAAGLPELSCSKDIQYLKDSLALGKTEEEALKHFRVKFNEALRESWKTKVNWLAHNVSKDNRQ
Sequence (P27986 whole entry partner): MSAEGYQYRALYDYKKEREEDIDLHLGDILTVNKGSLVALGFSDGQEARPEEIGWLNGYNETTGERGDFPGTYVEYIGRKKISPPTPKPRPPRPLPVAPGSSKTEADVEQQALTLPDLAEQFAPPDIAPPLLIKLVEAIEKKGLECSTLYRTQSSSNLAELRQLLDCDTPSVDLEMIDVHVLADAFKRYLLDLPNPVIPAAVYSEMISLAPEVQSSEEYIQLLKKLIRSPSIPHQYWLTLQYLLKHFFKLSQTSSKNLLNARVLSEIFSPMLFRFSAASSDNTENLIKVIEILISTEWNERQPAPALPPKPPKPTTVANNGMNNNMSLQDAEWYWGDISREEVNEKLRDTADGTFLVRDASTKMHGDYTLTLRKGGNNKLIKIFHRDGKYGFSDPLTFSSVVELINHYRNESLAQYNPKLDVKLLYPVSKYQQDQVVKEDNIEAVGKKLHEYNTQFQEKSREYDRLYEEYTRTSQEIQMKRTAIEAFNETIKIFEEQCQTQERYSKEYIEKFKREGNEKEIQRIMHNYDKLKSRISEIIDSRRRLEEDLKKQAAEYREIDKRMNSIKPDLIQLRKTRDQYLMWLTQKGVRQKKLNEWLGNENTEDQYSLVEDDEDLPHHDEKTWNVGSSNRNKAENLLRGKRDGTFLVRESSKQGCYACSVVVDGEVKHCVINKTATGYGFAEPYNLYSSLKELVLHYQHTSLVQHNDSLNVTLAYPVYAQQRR
measurement-kind: PI3Kδ IH % @ 1 uM (%)

C[C@H]1CN(c2nc(N)ncc2C#N)C1c1nn2ccc(F)c2c(=O)n1-c1ccccc1 (stereo partly drawn) [Compound 430] = 93.9
CC(=O)c1cnc(N)nc1N1CCCC1c1cn2ccc(Cl)c2c(=O)n1-c1ccccc1 (stereo not drawn) [Compound 321] = 100.0
CC(C)Cn1c([C@@H]2CCCN2c2ncnc3[nH]cc(C#N)c23)nn2c(F)ccc2c1=O [Compound 107] = 98.6
CC(Nc1ncnc2[nH]cc(F)c12)c1cc2ncc(Cl)n2c(=O)n1-c1ccccc1 (single isomer, unassigned) [Compound 451] = 96.4
CC(=O)c1n[nH]c2ncnc(N3CCC[C@H]3c3nn4ccc(Cl)c4c(=O)n3-c3ccccc3)c12 [Compound 297] = 96.0

P. CS(=O)(=O)[C@H]1C[C@@H](c2nn3ccc(Cl)c3c(=O)n2-c2ccccc2)N(c2ncnc3[nH]cc(C#N)c23)C1 [Compound 365]
Q. COc1cnc(N)nc1N1CC[C@H]1c1nn2ccc(Cl)c2c(=O)n1-c1ccccc1 [Compound 284]
Q: Higher PI3Kδ IH % @ 1 uM between P and Q ? # answer = label of selected item
Ans: P

---

target: p110δ/p85α (Homo sapiens); assay: Transcreener KINASE Assay, kinase inhibition of p110δ/p85α; conditions: read-out: PI3Kδ IC50
pIC50: −log10 of the molar value.
measurement-kind: pIC50

Past entries and their recorded results:
Nc1nc2c(c(N3CC[C@H]3c3nn4ccc(Cl)c4c(=O)n3-c3ccccc3)n1)C(=O)CCN2 [Compound 241] = 7.49
Cc1nc(N)nc(N2CCC[C@H]2c2nn3ccc(Cl)c3c(=O)n2-c2ccccc2)n1 [Compound 201] = 7.72
O=c1c2c(Cl)ccn2nc([C@@H]2C[S+]([O-])CN2c2ncnc3[nH]cnc23)n1-c1ccccc1 (some centres unmarked) [Compound 293] = 7.85
C[S+]([O-])c1c[nH]c2ncnc(N3CC[C@H]3c3nn4ccc(Cl)c4c(=O)n3-c3ccccc3)c12 (some centres unmarked) [Compound 196] = 7.16
N#Cc1c(N)ncnc1N1CCC[C@H]1c1nn2ccc(Cl)c2c(=O)n1Cc1ccccn1 [Compound 69] = 8.05
CC(=O)c1n[nH]c2ncnc(N3CCC[C@H]3c3nn4ccc(Cl)c4c(=O)n3-c3ccccc3)c12 [Compound 297] = 8.22

P. CC(Nc1ncnc2[nH]cc(C#N)c12)c1cn2ccc(Cl)c2c(=O)n1-c1cccc(F)c1 (centres unmarked) [Compound 277]
Q. C[S@@+]([O-])c1c[nH]c2ncnc(N3C[C@@H](C#N)C[C@H]3c3nn4ccc(Cl)c4c(=O)n3-c3cccc(F)c3)c12 [Compound 349]
R. CC(Nc1nc(N)ncc1C(F)(F)F)c1cn2ccc(Cl)c2c(=O)n1-c1cccc(F)c1 (centres unmarked) [Compound 84]
S. N#Cc1c[nH]c2ncnc(N3CCC[C@H]3c3nn4ccc(CO)c4c(=O)n3-c3ccccc3)c12 [Compound 179]
T. N#Cc1c[nH]c2ncnc(N3CC[C@H]3c3nn4ccc(Cl)c4c(=O)n3-c3ccccc3)c12 [Compound 28]
Q: Arrange the 5 compounds from largest to smallest pIC50. Rank the items, then write their labels in that order.
Ans: P, S, R, T, Q
(P: 9.00, S: 8.70, R: 8.40, T: 7.85, Q: 6.95)

A. C[C@H](Nc1nc(N)ncc1C#N)c1cc2ncc(Cl)n2c(=O)n1-c1ccccc1 (single isomer, unassigned) [Compound 385]
B. N#Cc1c[nH]c2ncnc(N3CC(F)(F)C[C@H]3c3nn4ccc(Cl)c4c(=O)n3Cc3ccccn3)c12 [Compound 160]
C. Cc1nc(N)nc(N2C[C@H](C)C2c2nn3ccc(Cl)c3c(=O)n2-c2ccc(F)cc2)c1C#N (some centres unmarked) [Compound 439]
Q: Falling order of pIC50, please. Your answer should be the labels, listed in the requested order.
Ans: C, A, B

P. N#Cc1c[nH]c2ncnc(N3CCC[C@H]3c3nn4ccc(C5CC5)c4c(=O)n3-c3ccccc3)c12 [Compound 52]
Q. Cc1nc(N)nc(N2C[C@H](C)[C@H]2c2nn3ccc(F)c3c(=O)n2-c2ccc(F)cc2)c1C#N [Compound 463]
R. C[S+]([O-])c1c[nH]c2ncnc(N3CCC[C@H]3c3nn4ccc(Cl)c4c(=O)n3-c3ccccc3)c12 (some centres unmarked) [Compound 197]
S. N#C[C@H]1C[C@@H](c2nn3ccc(Cl)c3c(=O)n2-c2cccc(F)c2)N(c2ncnc3[nH]cnc23)C1 [Compound 347]
Q: Parameters: sort_field (pIC50), sort_dir (desc). Answer by naming the labels in the order asked.
Ans: R, S, Q, P

meta.source: patent US20150307520A1
